Where these numbers come from: patent US20240360114A1

# Test system: HT-1080 cells
# experimental.protocol: HT-1080 cell viability assay (ferroptosis induced by RSL3, Cell Titer-Glo)
# Format: cell-based
# test.context: Homo sapiens, HT-1080, 20 h, ferroptosis inducer RSL3, 20 hours, ferroptosis inhibitory activity, Table 2
pEC50: −log10 of the molar value.
quantity.kind: pEC50

>  <molecule>
Cc1nc(N2CCC(C(F)(F)F)CC2)ccc1NC1CC2(CC(N)C2)C1 (stereo not shown)

>  <val>
7.00 to 10.00

$$$$
>  <molecule>
NC1CCC(Nc2ccc(F)c(F)c2)CC1 (stereo not shown)

>  <val>
5.00 to 6.00

$$$$
>  <molecule>
CC1CN(c2ccc(NC3CCCCC3N)cc2)CC(C)O1 (stereo not shown)

>  <val>
6.00 to 7.00

$$$$
>  <molecule>
CC1CN(c2ccc3cc(NC4CC5(CC(N)C5)C4)ccc3c2)CC(C)O1 (stereo not shown)

>  <val>
7.00 to 10.00

$$$$
>  <molecule>
CC1(C)CCC(c2ccc(NCCN3CCCC3)cc2)CC1

>  <val>
7.00 to 10.00

$$$$
>  <molecule>
NC1CCC(Nc2ncc(N3CCC(C(F)(F)F)CC3)cn2)CC1 (single isomer, unassigned) [Compound 64A]

>  <val>
5.00 to 6.00

$$$$
>  <molecule>
Cc1cc(N(C)C)ccc1NC[C@H]1CC[C@H](N)CC1

>  <val>
7.00 to 10.00

$$$$
>  <molecule>
CCC(CC)c1ccc(NC2CCC(CN)CC2)cc1 (single isomer, unassigned) [Compound 81A]

>  <val>
6.00 to 7.00

$$$$
>  <molecule>
CC1CN(c2ccc(NC3CCCCC3N)c(F)c2)CC(C)O1 (stereo not shown)

>  <val>
6.00 to 7.00

$$$$
>  <molecule>
N[C@H]1CC[C@@H](CNc2ccc3c(c2)CCCC3)CC1

>  <val>
7.00 to 10.00

$$$$
>  <molecule>
CC1(C)CCC(c2ccc(NC3CCCC(CN)CC3)cc2)CC1 (stereo not shown)

>  <val>
7.00 to 10.00

$$$$
>  <molecule>
N[C@H]1CC[C@H](CNc2ccc(N3CCC(C(F)(F)F)CC3)cc2)CC1

>  <val>
7.00 to 10.00

$$$$
>  <molecule>
CCN1CCC(Nc2ccc(N3CCC(C(F)(F)F)CC3)cc2)CC1

>  <val>
7.00 to 10.00

$$$$
>  <molecule>
CCCCCNc1ccc(N2CCC(C(F)(F)F)CC2)cc1

>  <val>
7.00 to 10.00

$$$$
>  <molecule>
CCC1CCN(c2ccc(NC[C@H]3CC[C@H](N)CC3)c(C)c2)CC1

>  <val>
7.00 to 10.00

$$$$
>  <molecule>
NC1CCC(Nc2cccc3c2CCC3)CC1 (single isomer, unassigned) [Compound 191A]

>  <val>
5.00 to 6.00

$$$$
>  <molecule>
CCOCCCc1ccc(N[C@H]2CC[C@H](N)CC2)cc1

>  <val>
6.00 to 7.00

$$$$
>  <molecule>
CC1(N)CCC(Nc2ccc3c(c2)CCC3)CC1 (stereo not shown)

>  <val>
7.00 to 10.00

$$$$
>  <molecule>
Cc1nc(N2CC(C)OC(C)C2)ccc1NC1CCC(CCCN)CC1 (stereo not shown)

>  <val>
7.00 to 10.00

$$$$
>  <molecule>
CN(C)CC1CCC(Nc2ccc(C3CCC(C)(C)CC3)cc2)CC1 (single isomer, unassigned) [Compound 97A]

>  <val>
7.00 to 10.00

$$$$
>  <molecule>
CN(C)C1CCC(Nc2ccc(N3CCC(C(F)(F)F)CC3)cc2)CC1 (stereo not shown)

>  <val>
7.00 to 10.00

$$$$
>  <molecule>
CC1CN(c2c(F)cc(NC[C@H]3CC[C@H](N)CC3)cc2F)CC(C)O1 (stereo partly shown)

>  <val>
6.00 to 7.00

$$$$
>  <molecule>
CC1(C)CCC(c2ccc(NC3CC(N)C3)cc2)CC1 (stereo not shown)

>  <val>
7.00 to 10.00

$$$$
>  <molecule>
CC1CCN(c2ccc(NC3CCC(N)CC3)cc2C(F)(F)F)CC1 (stereo not shown) [Compound 53A]

>  <val>
7.00 to 10.00

$$$$
>  <molecule>
CC(C)C1CCN(c2ncc(NC3CCNCC3)cn2)CC1

>  <val>
7.00 to 10.00

$$$$
>  <molecule>
CC[C@@H]1CN(c2ccc(NC3CC4(CC(N)C4)C3)c(C)n2)C[C@H](C)O1 (stereo partly shown)

>  <val>
7.00 to 10.00

$$$$
>  <molecule>
Cc1cc(N2CCC(C(F)(F)F)CC2)ccc1NCCCC[C@H]1CC[C@H](N)CC1

>  <val>
7.00 to 10.00

$$$$
>  <molecule>
COc1cc(NC[C@H]2CC[C@H](N)CC2)ccc1N1C[C@@H](C)O[C@H](C)C1 (stereo in doubt)

>  <val>
6.00 to 7.00

$$$$
>  <molecule>
Cc1nc(N2C[C@@H](C)O[C@@H](C)C2)ccc1NC1CC2(CC(N)C2)C1 (stereo partly shown) [Compound 488A]

>  <val>
7.00 to 10.00

$$$$
>  <molecule>
NC1CCC(Nc2ccc(N3CCC(C(F)(F)F)CC3)cc2Cl)CC1 (stereo not shown)

>  <val>
7.00 to 10.00

$$$$
>  <molecule>
CN(C)CC1CCC(Nc2ccc(C(C)(C)C)cc2)CC1 (stereo not shown)

>  <val>
7.00 to 10.00

$$$$
>  <molecule>
NCC1CCC(Nc2ccc(N3CCC(C(F)(F)F)CC3)cc2)CC1 (stereo not shown)

>  <val>
7.00 to 10.00

$$$$
>  <molecule>
CCOCCOC1CCN(c2ccc(NC3CC4(CC(N)C4)C3)c(C)c2)CC1 (stereo not shown)

>  <val>
7.00 to 10.00

$$$$
>  <molecule>
CC(C)C1CCN(c2ncc(NC3CC4(CC(NCCF)C4)C3)cn2)CC1 (stereo not shown)

>  <val>
7.00 to 10.00

$$$$
>  <molecule>
CC(C)(C)c1ccc(NC2CCC(NC(=O)C3CNCCN3)CC2)cc1 (stereo not shown)

>  <val>
7.00 to 10.00

$$$$
>  <molecule>
Cc1nc(N2CCC(C(C)C)CC2)ccc1NC1CCC(CN)CC1 (stereo not shown)

>  <val>
7.00 to 10.00

$$$$
>  <molecule>
CC(C)(C)c1ccc(-c2ccc(NC3CCC(N)CC3)cc2)cc1 (stereo not shown)

>  <val>
7.00 to 10.00

$$$$
